- test-protocol: Quantitative high throughput screen for delayed death inhibitors of the malarial parasite plastid, 96 hour incubation.
- run-parameters: P. falciparum luciferase growth
Active and inactive are the calls of the source. Calls come from the whole dose curve; as a rule, active = well fitted inhibition curve with a large enough effect; inconclusive = small, poorly fitted or top-dose-only effect; inactive = flat fitted curve, though single readings scatter.
measurement-kind: Potency

Ask: Recorded Potency for `C[C@@H]1CN([C@@H](C)CO)C(=O)c2cc(NC(=O)Nc3ccccc3)ccc2O[C@@H](C)CCCCO[C@H]1CN(C)C(=O)OC(C)(C)C` , please?
Reply: 711 nM (active)

Ask: Item `C[C@@H]1CCCCO[C@H](CN(C)C(=O)Nc2ccc(F)cc2)[C@H](C)CN([C@@H](C)CO)C(=O)c2cc(NS(=O)(=O)c3ccccc3)ccc2O1` has what recorded Potency?
Reply: 113 nM (active)

Ask: Item `C[C@@H]1CN(CCO[Si](C)(C)C(C)(C)C)C(=O)c2cc(NC(=O)Nc3ccccc3)ccc2O[C@@H](C)CCCCO[C@H]1CN(C)S(=O)(=O)c1ccc(F)cc1` has what recorded Potency?
Reply: 40 nM (active)

Ask: Returns the measured Potency for the input molecule. Input: `C[C@@H]1CN([C@@H](C)CO)C(=O)c2cc(NC(=O)Nc3ccccc3)ccc2O[C@@H](C)C/C=C\CO[C@H]1CN(C)S(=O)(=O)c1ccc(F)cc1`
Reply: 252 nM (active)

Ask: Tell me the measured Potency of `C[C@@H]1CN(C)C(=O)c2cc(NC(=O)Nc3ccccc3)ccc2O[C@@H](C)CCCCO[C@@H]1CN(C)S(=O)(=O)c1ccc(F)cc1` , please.
Reply: 1000 nM (active)

Ask: Requested read-out: Potency. Entry: `C[C@@H]1CN(CCO)C(=O)c2cc(NC(=O)Nc3ccccc3)ccc2O[C@@H](C)CCCCO[C@H]1CN(C)S(=O)(=O)c1ccc(F)cc1`
Reply: 179 nM (active)

Ask: Reported Potency for `C=CCOC(=O)N(C)C[C@H]1OCCCC[C@H](C)Oc2ccc(NC(=O)Nc3ccccc3)cc2C(=O)N([C@@H](C)CO[Si](C)(C)C(C)(C)C)C[C@H]1C` : what is it?
Reply: 126 nM (active)

Ask: What value of measured Potency is listed for `C[C@@H]1CN([C@@H](C)COC(=O)C(C)(C)C)C(=O)c2cc(NC(=O)Nc3ccccc3)ccc2O[C@@H](C)CCCCO[C@H]1CN(C)S(=O)(=O)c1ccc(F)cc1` ?
Reply: 5.7 nM (active)

Ask: So what does the record say about Potency for `Cc1noc(C)c1NC(=O)Nc1ccc2c(c1)C(=O)N([C@@H](C)CO)C[C@@H](C)[C@H](CN(C)S(=O)(=O)c1ccc(F)cc1)OCCCC[C@H](C)O2` ?
Reply: 79.8 nM (active)

Ask: I am curious: what Potency value has been reported for `CC(C)NC(=O)Nc1ccc2c(c1)C(=O)N([C@@H](C)CO)C[C@@H](C)[C@H](CN(C)S(=O)(=O)c1ccc(F)cc1)OCCCC[C@H](C)O2` ?
Reply: 449 nM (active)

Ask: Requested field: Potency. Item: `C[C@@H]1CN([C@@H](C)COC(=O)c2ccccc2)C(=O)c2cc(NC(=O)Nc3ccccc3)ccc2O[C@@H](C)CCCCO[C@H]1CN(C)S(=O)(=O)c1ccc(F)cc1`
Reply: 44.9 nM (active)

Ask: Query: Potency; subject: `COCCOCOC[C@H](C)N1C[C@@H](C)[C@H](CN(C)S(=O)(=O)c2ccc(F)cc2)OCCCC[C@H](C)Oc2ccc(NC(=O)Nc3ccccc3)cc2C1=O`
Reply: 11.3 nM (active)

Ask: Request the reported Potency associated with `C[C@@H]1CN([C@@H](C)CO)C(=O)c2cc(NC(=O)Nc3ccccc3)ccc2O[C@@H](C)CCCCO[C@H]1CN(C)S(=O)(=O)c1cccc(F)c1`
Reply: 7.1 nM (active)

Ask: Could you share which Potency value was measured for `C[C@@H]1CN([C@H](C)CO[Si](C)(C)C(C)(C)C)C(=O)c2cc(NC(=O)Nc3ccccc3)ccc2O[C@@H](C)CCCCO[C@H]1CN(C)S(=O)(=O)c1ccc(F)cc1` ?
Reply: 159 nM (active)

Ask: # input molecule: `C=CCOC(=O)N(C)C[C@@H]1OCCCC[C@H](C)Oc2ccc(NC(=O)Nc3ccccc3)cc2C(=O)N([C@@H](C)CO)C[C@H]1C` ; wanted: its Potency
Reply: 252 nM (active)

Ask: Quick one: Potency of `CC(C)N1C[C@@H](C)[C@H](CN(C)S(=O)(=O)c2ccc(F)cc2)OCCCC[C@H](C)Oc2ccc(NC(=O)Nc3ccccc3)cc2C1=O` ?
Reply: 17.9 nM (active)

Ask: Would you kindly share the measured Potency for `C[C@@H]1CCCCO[C@@H](CN(C)Cc2ccc(F)cc2)[C@H](C)CN([C@@H](C)CO)C(=O)c2cc(NC(=O)Nc3ccccc3)ccc2O1` ?
Reply: 2830 nM (active)

Ask: I am curious: what Potency value has been reported for `C[C@@H]1CN([C@@H](C)CO)C(=O)c2cc(Nc3nc4ccccc4o3)ccc2O[C@@H](C)CCCCO[C@H]1CN(C)S(=O)(=O)c1ccc(F)cc1` ?
Reply: 1130 nM (active)

Ask: Would you mind telling me what Potency value was observed for `C[C@@H]1CN([C@@H](C)COC(=O)c2ccccc2)C(=O)c2cc(NC(=O)Nc3ccccc3)ccc2O[C@@H](C)CCCCO[C@H]1CN(C)C(=O)OC(C)(C)C` ?
Reply: 356 nM (active)

Ask: # get_value(readout='Potency', item= `C[C@@H]1CN([C@@H](C)CO)C(=O)c2cc(NC(=O)Nc3ccccc3)ccc2O[C@@H](C)C/C=C/CO[C@H]1CN(C)S(=O)(=O)c1ccc(F)cc1` )
Reply: 79.8 nM (active)

Ask: Consider the molecule `C=CCOC(=O)N(C)C[C@@H]1OCCCC[C@H](C)Oc2ccc(NC(=O)Nc3ccccc3)cc2C(=O)N([C@H](C)COC(=O)c2ccccc2)C[C@H]1C` and give its measured Potency.
Reply: 504 nM (active)
